Assay: Cmax in rat at 52.5 mg/kg, po measured upto 48 hrs by LC analysis
Assay type: ADME, organism-based
Conditions: in vivo
measured_endpoint: Cmax (ng/mL)

smiles_string=CNC(=O)c1ccsc1Nc1nc(Nc2ccc(N3CCC(N4CCOCC4)CC3)cc2)ncc1C(F)(F)F measured_endpoint=Cmax unit_name=ng/mL measured_value=3900

###

Experiment: Terminal half-life in rat at 52.5 mg/kg, po measured upto 48 hrs by LC analysis
Format: ADME, organism-based
Conditions: in vivo, read-out: beta t1/2 (converted)
measured_endpoint: half-life (h)

smiles_string=CNC(=O)c1ccsc1Nc1nc(Nc2ccc(N3CCC(N4CCOCC4)CC3)cc2)ncc1C(F)(F)F measured_value=14.3

###

Assay: Tmax in rat at 52.5 mg/kg, po measured upto 48 hrs by LC analysis
Format: ADME, organism-based
Conditions: in vivo
measured_endpoint: Tmax (h)

smiles_string=CNC(=O)c1ccsc1Nc1nc(Nc2ccc(N3CCC(N4CCOCC4)CC3)cc2)ncc1C(F)(F)F measured_endpoint=Tmax measured_value=4.4

Entry source: ChEMBL document CHEMBL5634095
